Give measured θc, advancing water contact angle for each item. Keep answers brief.
Protocol Details: advancing water contact angle measurement
Type: physicochemical
Conditions Used: UV-cured phosphonium coating on polystyrene; triplicate
Quick reminder: number only, in deg, skip the unit.

Quote θc, advancing water contact angle reported for C[P+](C)(C)CCCOc1ccc(C(=O)c2ccccc2)cc1.[Br-] please.
71.9

Quote θc, advancing water contact angle reported for CCCC[P+](CCCC)(CCCC)CCCOc1ccc(C(=O)c2ccccc2)cc1.[Br-] please.
36.4

Quote θc, advancing water contact angle reported for O=C(c1ccccc1)c1ccc(OCCC[P+](c2ccccc2)(c2ccccc2)c2ccccc2)cc1.[Br-] please.
63.5

Quote θc, advancing water contact angle reported for O=C(c1ccccc1)c1ccc(OCCC[P+](CCC(F)(F)C(F)(F)C(F)(F)C(F)(F)C(F)(F)C(F)(F)F)(c2ccccc2)c2ccccc2)cc1.[Br-] please.
68.0
